Cited source for all entries: the supplement of paper PMC11061612

# Tested on: TOV-21G (Ovarian Carcinoma)
# Run description: combination Emax (second highest fraction inhibited in the dose matrix, 72 h); higher = more inhibition; extreme values may be limits of the assay
Metric: combination Emax
Hey, just send me the number, nothing else.

Compound: NC1(C(=O)N[C@@H](CCO)c2ccc(Cl)cc2)CCN(c2ncnc3[nH]ccc23)CC1 [Capivasertib] + C[C@@H]1COCCN1C2=NC(=NC(=C2)C3(CC3)[S@](=N)(=O)C)C4=C5C=CNC5=NC=C4 [AZD6738] (first compound max 10 µM, 7x7, partner max 10 µM)
combination Emax: 0.851
--
Compound: C=CCn1c(=O)c2cnc(Nc3ccc(N4CCN(C)CC4)cc3)nc2n1-c1cccc(C(C)(C)O)n1 [AZD1775] + C1CN(CCC1(C(=O)N[C@@H](CCO)C2=CC=C(C=C2)Cl)N)C3=NC=NC4=C3C=CN4 [Capivasertib] (first compound max 3 µM, partner max 3 µM)
combination Emax: 0.85
--
Compound: CC(=O)c1c(C)c2cnc(Nc3ccc(N4CCNCC4)cn3)nc2n(C2CCCC2)c1=O [Palbociclib] + Cn1cnc2c(F)c(Nc3ccc(Br)cc3Cl)c(C(=O)NOCCO)cc21 [Selumetinib] (first compound max 10 µM, 7x7, partner max 10 µM)
combination Emax: 0.519
--
Compound: COc1cccc(OCCCN)c1-c1cc(Nc2cnc(C#N)cn2)n[nH]1 [Prexasertib] + CN(C)CCCOc1ccc(-c2ccc3ncc4c(c3c2)n(C2CCOCC2)c(=O)n4C)cn1 [AZD0156] (first compound max 1 µM, 7x7, partner max 1 µM)
combination Emax: 0.621
--
Compound: C[C@@H]1COCCN1c1cc(C2([S@](C)(=N)=O)CC2)nc(-c2ccnc3[nH]ccc23)n1 [AZD6738] + O=C(c1cc(Cc2n[nH]c(=O)c3ccccc23)ccc1F)N1CCN(C(=O)C2CC2)CC1 [Olaparib] (first compound max 10 µM, 7x7, partner max 10 µM)
combination Emax: 0.538

Which value of combination Emax has been reported for CC1(C)CCC(CN2CCN(c3ccc(C(=O)NS(=O)(=O)c4ccc(NCC5CCOCC5)c([N+](=O)[O-])c4)c(Oc4cnc5[nH]ccc5c4)c3)CC2)=C(c2ccc(Cl)cc2)C1 [Venetoclax] + COc1cc(Nc2ncc3c(n2)-c2ccc(Cl)cc2C(c2c(F)cccc2OC)=NC3)ccc1C(=O)O [Alisertib] (first compound max 1 µM, 7x7, partner max 10 µM) in the records?
0.682

What value of combination Emax has been reported for the following compound? Cn1cnc2c(F)c(Nc3ccc(Br)cc3Cl)c(C(=O)NOCCO)cc21 [Selumetinib] + C=CCn1c(=O)c2cnc(Nc3ccc(N4CCN(C)CC4)cc3)nc2n1-c1cccc(C(C)(C)O)n1 [AZD1775] (first compound max 10 µM, partner max 1 µM)
0.702
